Reference for the values: ChEMBL document CHEMBL4602606

Assay: Maximum serum concentration in human at 500 mg, po
Type: ADME
Design: dose 500 mg, route oral
Measured endpoint: Cmax (ng/mL)
Supply the numeric figure in ng/mL, leaving out any unit text.

Q: Bench note: what Cmax did CC[C@H]1OC(=O)[C@H](C)[C@@H](O[C@H]2C[C@@](C)(OC)[C@@H](O)[C@H](C)O2)[C@H](C)[C@@H](O[C@@H]2O[C@H](C)C[C@H](N(C)C)[C@H]2O)[C@](C)(OC)C[C@@H](C)C(=O)[C@H](C)[C@@H](O)[C@]1(C)O show?
Result: 2500

###

Test: Protein binding in plasma (unknown origin)
Format: ADME, cell-free
Details: read-out: PPB
Measured endpoint: fraction unbound

Q: Bench note: what fraction unbound did CC[C@H]1OC(=O)[C@H](C)C(=O)[C@H](C)[C@@H](O[C@@H]2O[C@H](C)C[C@H](N(C)C)[C@H]2O)[C@](C)(OCC=Cc2cnc3ccccc3c2)C[C@@H](C)C(=O)[C@H](C)[C@H]2NC(=O)O[C@@]21C show?
Result: < 0.04

###

Experiment: Maximum serum concentration in human at 500 mg, po measured within 2 hrs
Assay type: ADME, organism-based
Set-up: dose 500 mg, route oral
Details: in vivo
Measured endpoint: Cmax

Q: Bench note: what Cmax did CC[C@H]1OC(=O)[C@H](C)[C@@H](O[C@H]2C[C@@](C)(OC)[C@@H](O)[C@H](C)O2)[C@H](C)[C@@H](O[C@@H]2O[C@H](C)C[C@H](N(C)C)[C@H]2O)[C@](C)(O)C[C@@H](C)CN(C)[C@H](C)[C@@H](O)[C@]1(C)O [AZITHROMYCIN] show?
Result: 350 to 450 µg/mL

###

Assay: Terminal half life in human
Assay type: ADME
Conditions: read-out: beta t1/2
Measured endpoint: half-life

Q: Bench note: what half-life did CC[C@H]1OC(=O)[C@H](C)[C@@H](O[C@H]2C[C@@](C)(OC)[C@@H](O)[C@H](C)O2)[C@H](C)[C@@H](O[C@@H]2O[C@H](C)C[C@H](N(C)C)[C@H]2O)[C@](C)(O)C[C@@H](C)CN(C)[C@H](C)[C@@H](O)[C@]1(C)O show?
Result: 48 to 96 h
